# assayed.system: T1, Recombinant Human TNF-α/TNFSF1A (human, UniProt P01375 77-233)
# T1 construct: also called hTNF-α; huTNFα
# T1 sequence (P01375 77-233 limits assumed): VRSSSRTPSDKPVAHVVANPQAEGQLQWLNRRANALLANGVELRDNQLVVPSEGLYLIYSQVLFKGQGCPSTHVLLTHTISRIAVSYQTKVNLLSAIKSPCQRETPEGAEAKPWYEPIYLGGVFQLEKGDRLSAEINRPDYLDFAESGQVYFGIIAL
# test.protocol: SPR (BIACORE), antibody captured, TNFα in solution
endpoint.label: pKd
Please treat pKd as minus the base-10 logarithm of the molar concentration.

Some binders with known pKd results, for comparison:
AB361 (antibody, V domains shown, Full-length humanized antibody made in HEK 293-6E; also called hMAK199VH.1a/hMAK199VL.2a) VH: EIQLVQSGSELKKPGASVKVSCKASGYTFTNYGMNWVRQAPGQGLEWMGWINTYTGEPTYADDFKGRFVFSLDTSVSTAYLQISSLKAEDTAVYFCARKFLTTVVVTDYAMDYWGQGTTVTVSS VL: DIVMTQSPAFLSVTPGEKVTITCRASQDISNYLNWYQQKPDQTVKLLIYYTSRLQSGVPSRFSGSGSGTDYTFTISSLEAEDAATYFCQQGNTLPPTFGQGTKLEIK    9.10
AB364 (antibody, V domains shown, Full-length humanized antibody made in HEK 293-6E; also called hMAK199VH.1b/hMAK199VL.1a) VH: EVQLVQSGSELKKPGASVKVSCKASGYTFTNYGMNWVRQAPGQGLEWMGWINTYTGEPTYADDFKGRFVFSLDTSVSTAYLQISSLKAEDTAVYFCARKFLTTVVVTDYAMDYWGQGTTVTVSS VL: DIQMTQSPSSLSASVGDRVTITCRASQDISNYLNWYQQKPGKTVKLLIYYTSRLQSGVPSRFSGSGSGTDYTLTISSLQPEDFATYFCQQGNTLPPTFGQGTKLEIK    9.05

Kindly consider the entry below.
Data request, read-out pKd, for AB383 (antibody, V domains shown, Full-length humanized antibody made in HEK 293-6E; also called hMAK199VH.2b/hMAK199VL.1b) VH: EIQLVQSGAEVKKPGASVKVSCKASGYTFTNYGMNWVRQAPGQGLEWMGWINTYTGEPTYADDFKGRVTFTTDTSTSTAYMELSSLRSEDTAVYYCARKFLTTVVVTDYAMDYWGQGTTVTVSS VL: DIQMTQSPSSLSASVGDRVTITCRASQDISNYLNWYQQKPGKAPKLLIYYTSRLQSGVPSRFSGSGSGTDYTLTISSLQPEDFATYYCQQGNTLPPTFGQGTKLEIK
8.68
